- System: Pseudomonas aeruginosa
- ASSAY_PROTOCOL: Antimicrobial activity against Pseudomonas aeruginosa 1523-08
- Format: functional
Each item that follows carries a reported MIC90.
PROPERTY_LABEL: MIC90 (µg/mL)

1) C[C@H](O)Cn1c(-c2cc(=O)c(O)c[nH]2)nn(S(=O)(=O)NC(=O)N2C(=O)[C@@H](NC(=O)/C(=N\OC(C)(C)C(=O)O)c3csc(N)n3)[C@@H]2C)c1=O	0.25
2) CC(C)(O/N=C(\C(=O)N[C@H]1CN(C(=O)NS(=O)(=O)n2nc(-c3cc(=O)c(O)c[nH]3)n(C[C@@H](O)CO)c2=O)C1=O)c1csc(N)n1)C(=O)O	0.25
3) CC1(C)[C@H](NC(=O)/C(=N\OCc2cc(=O)c(O)cn2O)c2csc(N)n2)C(=O)N1OS(=O)(=O)O	1
